Just for reference, PubChem BioAssay (NCI) is where these values come from.

Test system: HOP-62 NSCLC
Assay: NCI-60 one-dose screen, 48 h
Conditions: 10 µM unless noted
The panel holds about 83,000 compounds, 20% with a hit somewhere; the sample as a whole holds those more often. The source made the active and inactive calls. The calls were made as follows: active = growth percent below 10; inactive = the rest.
Assign a class; possible classes are True = active, False = inactive

Prompt: Name the outcome recorded for O=c1[nH]c2c3ccncc3cc(-c3cccc(Cl)c3)c2c2cnccc12 in the assay.
Completion: True

Prompt: State the result this test recorded for O=C1/C(=C\C(Cl)=C/c2ccc([N+](=O)[O-])cc2)SC(=S)N1CCc1ccc(O)cc1 .
Completion: False

Prompt: Would you mind telling me which call this test gave CCCCC[C@H]1C/C=C2/C(=O)C(Cl)=C[C@@H]2C/C=C\CCCC(=O)O1 ?
Completion: True

Prompt: # outcome recorded in this test, key = N#Cc1c(-c2ccco2)nc2c(c(-c3ccccc3)nn2-c2ccccc2)c1-c1ccc(O)cc1
Completion: True

Prompt: Please indicate how the test categorized NC(Cc1ccc(O)cc1)C(=O)N/N=C/c1ccccc1O (configuration not stated) .
Completion: False

Prompt: Per the assay record, what outcome was assigned to [B-][N+](CC)(CC)c1ccccc1 ?
Completion: False

Prompt: Can you look up the reported call for O=C(N/N=C\c1c(O)ccc2ccccc12)C1CC1 for me?
Completion: False

###

System: CAKI-1 renal
Assay: NCI-60 one-dose screen, 48 h
Details: 10 µM unless noted
About 83,000 compounds went through this panel and 20% of them were active in at least one assay; those are over-represented in the sample as a whole. The source made the active and inactive calls. Rule for the calls: active = growth percent below 10; inactive = the rest.
Use one of these outcomes when replying: y for active, n for inactive

Prompt: Dear colleague, could you share the recorded outcome for COc1ccc(/C=C/C(=O)NCCO)cc1 when you have a moment?
Completion: n

Prompt: Per the records of this test, what outcome belongs to COc1ccc(NC(=O)c2ccoc2COc2ccccc2)cc1 ?
Completion: n

Prompt: Fill in: this test's call for Cc1cc2nc3c4cc([N+](=O)[O-])cc([N+](=O)[O-])c4n(CCN(C)C)c3nc2cc1C is ___
Completion: n

Prompt: Give the logged outcome of this assay for the following compound: N#C/C(=C\c1ccc(-c2ccc(Br)cc2)o1)c1nc(-c2ccco2)cs1
Completion: n

Prompt: Which outcome was assigned to CCN1CCN(C(=O)[C@]23CC[C@@H](C)[C@H](C)[C@H]2C2=CC[C@@H]4[C@@]5(C)C/C(=C/c6cccc(OC)c6OC)C(=O)C(C)(C)[C@@H]5CC[C@@]4(C)[C@]2(C)CC3)CC1 in this test?
Completion: n

Prompt: Test call, this compound: S=c1[nH]nc2ccccn12
Completion: n

Prompt: # lookup: test call for COc1cnc2c(c1)C(=O)c1c-2n(CCCNC2=NCCS2)c(=O)c2cc([N+](=O)[O-])ccc12
Completion: n

Prompt: For C[C@]12CC[C@@H]3c4ccc(O)cc4CC[C@H]3[C@@H]1C[C@H](O)[C@@H]2O , which call appears in the assay record?
Completion: n

Prompt: Returns: the outcome recorded for CC(=O)N1N=C(c2ccc(C)cc2)CC1c1ccc(Oc2ccc(Br)cc2)cc1 (centres undefined) in this assay.
Completion: n

Prompt: Which outcome was entered for the compound CCCCCCCC(=O)SCC/C=C/[C@@H]1CC(=O)NCc2cccc(n2)CN(Cc2ccc3ccccc3c2)CC(=O)N[C@@H](C(C)C)C(=O)O1 in this test?
Completion: n

Prompt: Please indicate how the test categorized COc1ccccc1-n1cnc(N)c1C(=O)c1cc(OC)c(OC)c(OC)c1 .
Completion: n

Prompt: Record request — test call for O=C1CCN2C(=O)Nc3ccccc3C2C1 (centres undefined)
Completion: n

Prompt: Look up the recorded call for Cn1cc(-c2csc(-c3cn(C(=O)OC(C)(C)C)c4ccc(Br)cc34)n2)c2cccnc21 in this test.
Completion: n

Prompt: Which result was noted for this compound in the test: CCN1CCN(C(=O)[C@@]2(C)CC[C@]3(C)CC[C@]4(C)C(=CC(=O)[C@@H]5[C@@]6(C)CC[C@H](OCCC#N)C(C)(C)[C@@H]6CC[C@]54C)[C@@H]3C2)CC1
Completion: n

Prompt: What call does the record list for C=CC(=O)N[C@H](Cc1ccc(-c2cc(Cl)cc(Cl)c2)cc1)[C@H](O)[C@@H](O)C(=O)O ?
Completion: n

Prompt: Hey, what did the test say about c1csc(-c2nc(-c3cc4ccccc4c(N4CCOCC4)n3)cs2)c1 ?
Completion: n

Prompt: Short answer needed: outcome of this test for CCN1CCN(C(=O)[C@]23CCC(C)(C)C[C@@H]2C2=CC[C@@H]4[C@@]5(C)C/C(=C/c6ccncc6)C(=O)C(C)(C)[C@@H]5CC[C@@]4(C)[C@]2(C)CC3)CC1 ?
Completion: n

Prompt: For this compound, state the assay outcome: CN(CSc1ccc(Cl)cc1)c1ccc(CSc2ccc(Cl)cc2)cc1
Completion: n

Prompt: How was COC(=O)[C@]12CC[C@@H](C(/C=C/c3cccnc3)=N/O)[C@@H]1[C@H]1CC[C@@H]3[C@@]4(C)CC(=C/c5cccnc5)/C(=N/O)C(C)(C)[C@@H]4CC[C@@]3(C)[C@]1(C)CC2 classified in this test?
Completion: n

Prompt: I'd appreciate the recorded outcome for CCN(CC)C(=O)CCCCCn1c2ccccc2c2c3c(c4c5ccccc5[nH]c4c21)C(=O)N(O)C3=O from this test.
Completion: y

Prompt: Hi, sorry to bother you, what did the test record for Cc1oc(-c2ccccc2Cl)cc1C(=O)Nc1ccc(S(N)(=O)=O)cc1 ?
Completion: n

Prompt: // outcome(item) with item = O=C(NO)c1ccc(Cn2c(=O)n(CCc3ccc(O)cc3)c(=O)c3ccccc32)cc1
Completion: n

Prompt: Any idea what this test logged for c1ccc(-c2nc(Nc3ccc(-c4nc5ccccc5[nH]4)cc3)nc(N3CCOCC3)n2)cc1 ?
Completion: y

Prompt: Called result for Cn1cccc1/C=C1/SC(=S)N(CCc2ccc(O)cc2)C1=O
Completion: n

Prompt: Please share the test call associated with Oc1cccc2ccc(N/N=C/c3cc(CN4CCCCC4)c(O)c4ncccc34)nc12 .
Completion: y

Prompt: How was O=C1CN(c2ccccc2)C(=O)C1C(=O)Nc1ccc(Cl)c(Cl)c1 (centres undefined) classified in this test?
Completion: y

Prompt: Please share the test call associated with C[C@H]1OC(=O)/C=C/[C@@H](O)[C@@H](O)CCCCCCCC[C@@H]1O .
Completion: n

Prompt: Record lookup: outcome of this test for CCN(CC)c1ccc(/C=C/c2cc(C)c3ccccc3n2)cc1 ?
Completion: n

Prompt: Hi, do you know how COc1cccc(-c2nn(-c3ccccc3)cc2-c2ccnc(NCCCNS(=O)(=O)c3ccc(C(F)(F)F)cc3)c2)c1 came out in this test?
Completion: n

Prompt: For N#C/C(=C\c1ccc(-c2ccc(Cl)cc2)o1)c1nc(-c2ccco2)cs1 , which call appears in the assay record?
Completion: n

Prompt: Outcome logged for COc1cccc(-c2nn(-c3ccccc3)cc2-c2ccnc(NCCNS(=O)(=O)c3ccc(C(F)(F)F)cc3)c2)c1 in this assay:
Completion: n

Prompt: Would you mind telling me which call this test gave OCC(CO)(CCl)CCl ?
Completion: n

Prompt: Given c1ccc2c(-c3nc(-c4c[nH]c5ncccc45)cs3)c[nH]c2c1 , state the outcome it received in this test.
Completion: n

Prompt: What did the test return for O=c1c2sc3ncc(Br)cc3c2ncn1-c1cccc(Cl)c1 ?
Completion: n

###

System: EKVX NSCLC
Assay: NCI-60 one-dose screen, 48 h
Conditions: 10 µM unless noted
This is part of a sample that, as a whole, favours compounds with a hit. Of some 83,000 tested, about 20% had one in any assay. Active and inactive are the calls of the source. How the source made its calls: active means growth percent below 10; inactive means the rest.
Lab note: assign the record to one of Y = active, N = inactive

Prompt: Look up the recorded call for COc1cc(-c2cc3ncccc3c3[nH]c(=O)c4cccnc4c23)cc(OC)c1OC in this test.
Completion: N

Prompt: What did the test return for CCCCC[C@H]1CC=C2C(=O)C=C[C@@H]2CC=CCCCC(=O)O[C@@H](CCCCC)CC=C2C(=O)C=C[C@@H]2CC=CCCCC(=O)O[C@@H](CCCCC)CC=C2C(=O)C=C[C@@H]2CC=CCCCC(=O)O1 ?
Completion: N

Prompt: What was the test verdict on O=C1/C(=C\c2ccco2)SC(=S)N1CCc1ccc(O)cc1 ?
Completion: N

Prompt: Which outcome was assigned to Cn1c(=O)c2c(ncn2CC(=O)Nc2ccc(S(N)(=O)=O)cc2)n(C)c1=O in this test?
Completion: N

Prompt: Which outcome did this test record for the compound CC1(C)C(=O)/C(=C\c2cccnc2)C[C@]2(C)[C@H]3CC[C@@H]4[C@@H](C(=O)/C=C/c5ccncc5)CC[C@@]4(C)[C@]3(C)CC[C@@H]12 ?
Completion: N

Prompt: Can you look up the reported call for Cn1cc(-c2nc(-c3c[nH]c4ncccc34)cs2)c2cc(Cl)ccc21 for me?
Completion: N

Prompt: How was COc1ccc2c(c1)c1nc3cc(C)c(C)cc3nc1n2CCN(C)C classified in this test?
Completion: N

Prompt: For C=C(C)[C@@H]1CC[C@]2(C(=O)O)CC[C@]3(C)[C@H](CC[C@@H]4[C@@]5(C)C/C(=C/c6cccc(I)c6)C(=O)C(C)(C)[C@@H]5CC[C@]43C)[C@@H]12 , what call appears in the results of this test?
Completion: N

Prompt: Outcome logged for CCN1CCN(C(=O)[C@]23CCC(C)(C)C[C@@H]2C2=CC[C@@H]4[C@@]5(C)C/C(=C/c6ccncc6)C(=O)C(C)(C)[C@@H]5CC[C@@]4(C)[C@]2(C)CC3)CC1 in this assay:
Completion: N

Prompt: I'd appreciate the recorded outcome for O=c1[nH]c(=S)[nH]c2nc[nH]c12 from this test.
Completion: N

Prompt: Entry C#CCn1c2c(c3ccccc31)C[C@]1(C)[C@H]3CC[C@@H]4[C@@H]5C(=CCC[C@H]5C(=C)C)CC[C@@]4(C)[C@]3(C)CC[C@H]1C2(C)C : call = ?
Completion: N

Prompt: Dear colleague, could you share the recorded outcome for COc1ccc(C2C(C#N)=C(N)Oc3c2sc2c(F)cccc32)cc1 (centres undefined) when you have a moment?
Completion: N

Prompt: What classification did CCOC(=O)c1ccc2c(c1)[n+](=O)c(C(=O)C1CCCS1)c(C(F)(F)F)n2[O-] (centres undefined) end up with in this test?
Completion: Y

Prompt: Tell me the recorded outcome of this test for Cc1cc(N(CCNc2ccnc3cc(Cl)ccc23)Cc2ccco2)nc(Cl)n1 .
Completion: N
